target: CYP2D6 (Homo sapiens, UniProt P10635); test: CYP2D6 P450 Glo luminescent assay; details: human, CYP2D6 P450 Glo kit (Promega)
Sequence (P10635 whole entry): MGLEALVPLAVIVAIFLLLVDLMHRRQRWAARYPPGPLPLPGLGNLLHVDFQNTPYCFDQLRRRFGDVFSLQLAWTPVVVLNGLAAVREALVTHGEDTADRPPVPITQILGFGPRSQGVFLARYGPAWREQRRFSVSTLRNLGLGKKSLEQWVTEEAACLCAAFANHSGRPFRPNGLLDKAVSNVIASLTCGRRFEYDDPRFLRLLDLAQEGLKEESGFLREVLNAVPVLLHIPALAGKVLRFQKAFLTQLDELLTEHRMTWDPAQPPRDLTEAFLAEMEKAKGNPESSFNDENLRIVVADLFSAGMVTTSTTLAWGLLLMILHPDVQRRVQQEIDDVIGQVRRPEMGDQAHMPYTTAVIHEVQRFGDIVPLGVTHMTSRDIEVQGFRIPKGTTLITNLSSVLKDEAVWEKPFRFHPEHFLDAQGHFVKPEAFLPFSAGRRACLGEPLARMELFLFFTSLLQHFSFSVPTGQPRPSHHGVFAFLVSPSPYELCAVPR
measured attribute: inhibition at 10 µM

Item C=C[C@H]1C[N@@]2CC[C@H]1C[C@@H]2[C@@H](O)c1ccnc2ccc(OC)cc12 [Quinidine, reference compound] ; assay system CYP2D6 (Homo sapiens, UniProt P10635); inhibition at 10 µM reported as 100%

* * *

assay: PAMPA passive permeability; assay type: in vitro ADME; details: 100 μM, PBS pH 7.4, 5 h, read-out: Pe ± SD
measured attribute: Papp at 5 h, 100 μM (×10⁻⁶ cm/s)
Write the number in ×10⁻⁶ cm/s without appending the unit.

Papp at 5 h, 100 μM for CCN1CCCC1CNC(=O)c1cc(S(N)(=O)=O)ccc1OC (centres unmarked) [Sulpiride, reference compound] is 0.011
